# Test system: MLK1;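 also: KINOMEscan kinase panel screen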
# Construct: gene MAP3K9
# reported_conditions: concentration: 1 μM, replicates: in singlicate; n = 1
Could you please report measured %Inh for the items listed next?
Give bare numbers, in %.

Each compound below has a reported value. Please supply its %Inh.
1. COc1ccc(CNC(=O)NC2CCN(c3ccnc(Nc4ccc(OC)cc4)n3)C2)cc1 (stereo not drawn) [GSK1379727]
2. O=C(c1ccc(-c2cc(-c3c[nH]nc3-c3ccccn3)ccn2)cc1)N1CCOCC1 [GW812171]
3. CN1c2ccc(CNc3ccc(F)cc3)cc2-c2c(cnn2C)S1(=O)=O
4. COCCNC(=O)c1ccc(-c2cc(C(=O)NC3CC3)cc(F)c2C)cc1 [GW868318]

[0, 0, 0, 0]

State the recorded %Inh for every item in the following list.
1. CSc1ccc(-c2cc3ncnc(SCC(=O)O)c3s2)cc1
2. O=C(NCCNc1ccnc(Nc2ccc(F)cc2)n1)c1cc2ccccc2s1 [GSK1379874]
3. CC(=O)Nc1ccc(COc2ccc(Nc3ccnc4cc(-c5ccccn5)ccc34)cc2)cc1.Cl [GW440148]
4. COc1cc(Nc2nccc(N3CCC(NC(=O)c4cccc(NC(C)=O)c4)C3)n2)cc(OC)c1OC (stereo not drawn) [GSK1379754]
5. c1ccc(-c2n[nH]cc2-c2ccnc3ccccc23)nc1 [GW271431]

0
6
0
67
0
